B1: FERM and PDZ domain-containing protein 4, residues 75 to 154; numbered along this chain, Q14CM0 (parent)
chain: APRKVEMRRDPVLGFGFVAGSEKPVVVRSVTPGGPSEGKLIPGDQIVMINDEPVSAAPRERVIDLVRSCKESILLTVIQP

Variants of: B1
Assay: abundance fitness (aPCA) (normalised: wild type 0, dead -1); higher = more abundant; growth selection in yeast, the domain comes from the species named
Conditions: Homo sapiens
Where abundance fitness equals or exceeds -0.2, the correct label is 1; where it does not, the label is 0.

>>> class_label("A57C")
1
>>> class_label("L65G")
0
>>> class_label("V62N")
0
>>> class_label("P42D")
1

Ask | State whether the measured abundance fitness reaches -0.2, counting equality as reaching it, for `A1M`
Reply | 0

Ask | State whether the measured abundance fitness reaches -0.2, counting equality as reaching it, for `V5C`
Reply | 0

Ask | State whether the measured abundance fitness reaches -0.2, counting equality as reaching it, for `E52C`
Reply | 1

Ask | State whether the measured abundance fitness reaches -0.2, counting equality as reaching it, for `R3S`
Reply | 0

Ask | State whether the measured abundance fitness reaches -0.2, counting equality as reaching it, for `V27S`
Reply | 0

Ask | State whether the measured abundance fitness reaches -0.2, counting equality as reaching it, for `Q79G`
Reply | 1

Ask | State whether the measured abundance fitness reaches -0.2, counting equality as reaching it, for `I41G`
Reply | 1
